Test system: Secretion of IL10 by TMD8 ABC-DLBCL cells
Experiment: Human IL10 Mesoscale assay (TMD-8)
Format: cell-based
Settings: TMD8, 24 h, read-out: Human IL10 Mesoscale assay (TMD-8)
Measurement Label: IC50 (nM)
Provide the reading as a plain figure in nM.

Before answering, review these 6 worked examples.
>>> df
                         compound_structure                               measured_on  meas_value
0  Cc1ccnc(-n2ncc(C(=O)Nc3cnc(-n4nccn4)c(Cl)c3)c2C(F)(F)F)c1  Secretion of IL10 by TMD8 ABC-DLBCL cells         724
1  N#Cc1cc(NC(=O)c2cnn(-c3c(Cl)cncc3Cl)c2C(F)(F)F)cnc1-n1nccn1  Secretion of IL10 by TMD8 ABC-DLBCL cells         513
2  O=C(Nc1cnc(-n2nccn2)c(Cl)c1)c1cnn(-c2ccc(F)cc2)c1C(F)(F)F  Secretion of IL10 by TMD8 ABC-DLBCL cells         115
3  Cc1cc(-n2ncc(C(=O)Nc3cnc(-n4nccn4)c(Cl)c3)c2C(F)(F)F)c(Cl)cn1  Secretion of IL10 by TMD8 ABC-DLBCL cells        7080
4  O=C(Nc1cnc(-n2nccn2)c(Cl)c1)c1cnn(-c2ccc(F)cn2)c1C(F)(F)F  Secretion of IL10 by TMD8 ABC-DLBCL cells         417
5  N#Cc1cc(NC(=O)c2cnn(-c3ncc(F)cc3Br)c2C(F)(F)F)cnc1-n1nccn1  Secretion of IL10 by TMD8 ABC-DLBCL cells         631

Below: the item to evaluate.
[ask] Give the reported value of IC50 for this record: N#Cc1cc(NC(=O)c2cnn(-c3nccc(Cl)c3Cl)c2C(F)(F)F)cnc1-n1nccn1
[reply] 1150

###

Tested on: Secretion of IL6 by TMD8 ABC-DLBCL cells
Assay: Human IL6 Mesoscale assay (TMD-8)
Type: cell-based
Conditions: TMD8, 24 h, read-out: Human IL6 Mesoscale assay (TMD-8)
With a cut-off of 2000 nM, any IC50 strictly below it is called 1.0; any IC50 meeting it or above is called 0.0.

These solved cases illustrate the format of a correct answer.
                         compound_structure                               measured_on  discrete_label
0  Cc1cc(-n2ncc(C(=O)Nc3cnc(-n4nccn4)c(C#N)c3)c2C(F)(F)F)c(Cl)cn1  Secretion of IL6 by TMD8 ABC-DLBCL cells             0.0
1  Cc1ccnc(-n2ncc(C(=O)Nc3cnc(-n4nccn4)c(Cl)c3)c2C(F)(F)F)c1  Secretion of IL6 by TMD8 ABC-DLBCL cells             1.0
2  N#Cc1cc(NC(=O)c2cnn(-c3c(Cl)cncc3Cl)c2C(F)(F)F)cnc1-n1nccn1  Secretion of IL6 by TMD8 ABC-DLBCL cells             1.0
3  N#Cc1cc(NC(=O)c2cnn(-c3nccc(Cl)c3Cl)c2C(F)(F)F)cnc1-n1nccn1  Secretion of IL6 by TMD8 ABC-DLBCL cells             1.0
4  O=C(Nc1cnc(-n2nccn2)c(Cl)c1)c1cnn(-c2ccc(F)cn2)c1C(F)(F)F  Secretion of IL6 by TMD8 ABC-DLBCL cells             1.0

[ask] Problem: For the molecule Cc1ccc(-n2ncc(C(=O)Nc3cnc(-n4nccn4)c(Cl)c3)c2C(F)(F)F)nc1 , is IC50 under 2000 nM?
[reply] 1.0

[ask] Problem: For the molecule Cc1cc(-n2ncc(C(=O)Nc3cnc(-n4nccn4)c(Cl)c3)c2C(F)(F)F)c(Cl)cn1 , is IC50 under 2000 nM?
[reply] 0.0

[ask] Problem: For the molecule N#Cc1cc(NC(=O)c2cnn(-c3ncc(F)cc3Br)c2C(F)(F)F)cnc1-n1nccn1 , is IC50 under 2000 nM?
[reply] 1.0

[ask] Problem: For the molecule N#Cc1cc(NC(=O)c2cnn(-c3cccc4c3OCO4)c2C(F)(F)F)cnc1-n1nccn1 , is IC50 under 2000 nM?
[reply] 1.0

###

Target: full-length MALT1 protein (Strep-MALT1(1-824)-His) (Homo sapiens, UniProt Q9UDY8);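 further: fluorogenic LRSR-AMC substrate cleavage by MALT1, 50 min compound preincubation then 4 h reaction at RT, 11-point dilution from 30 µM, scaled between enzyme-free and untreated enzyme controls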
Sequence (Q9UDY8 1-824): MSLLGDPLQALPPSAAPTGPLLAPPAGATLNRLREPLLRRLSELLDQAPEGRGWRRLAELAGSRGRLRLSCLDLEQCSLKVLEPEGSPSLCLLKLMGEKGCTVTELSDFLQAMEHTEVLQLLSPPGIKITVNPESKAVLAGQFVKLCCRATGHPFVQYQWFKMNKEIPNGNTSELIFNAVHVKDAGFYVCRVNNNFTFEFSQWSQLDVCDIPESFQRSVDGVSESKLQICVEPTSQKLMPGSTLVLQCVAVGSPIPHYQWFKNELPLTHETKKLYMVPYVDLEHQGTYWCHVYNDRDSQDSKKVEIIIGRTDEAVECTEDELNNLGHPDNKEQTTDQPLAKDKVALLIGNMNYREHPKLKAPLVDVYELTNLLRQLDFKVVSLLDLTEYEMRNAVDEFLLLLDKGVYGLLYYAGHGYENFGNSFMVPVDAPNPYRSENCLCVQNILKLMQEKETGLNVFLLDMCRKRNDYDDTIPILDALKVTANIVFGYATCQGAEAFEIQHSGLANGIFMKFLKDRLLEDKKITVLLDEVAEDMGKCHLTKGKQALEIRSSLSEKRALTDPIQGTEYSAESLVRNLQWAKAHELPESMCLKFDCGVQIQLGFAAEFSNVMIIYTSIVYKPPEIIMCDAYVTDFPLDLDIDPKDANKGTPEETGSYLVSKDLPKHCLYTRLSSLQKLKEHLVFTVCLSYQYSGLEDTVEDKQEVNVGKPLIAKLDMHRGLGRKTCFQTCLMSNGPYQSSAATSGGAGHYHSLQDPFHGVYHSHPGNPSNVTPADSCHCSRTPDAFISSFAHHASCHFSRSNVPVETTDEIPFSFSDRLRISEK
Measurement Label: IC50

Before answering, review these 5 worked examples.
In [3]: df
Out[3]:
                                   compound  measurement_label  meas_value
0  N#Cc1ccc(-n2ncc(C(=O)Nc3cnc(-n4nccn4)c(Cl)c3)c2C(F)(F)F)c(Cl)c1 [Cpd 110]               IC50      123 nM
1  Cc1ccc(-n2ncc(C(=O)Nc3cnc(-n4nccn4)c(Cl)c3)c2C(F)(F)F)nc1 [Cpd 23]               IC50      933 nM
2  Cc1nccc(-n2ncc(C(=O)Nc3cnc(-n4nccn4)c(C#N)c3)c2C(F)(F)F)c1Cl [Cpd 43]               IC50      170 nM
3  N#Cc1ccc(-n2ncc(C(=O)Nc3cnc(-n4nccn4)c(Cl)c3)c2C(F)(F)F)nc1 [Cpd 11]               IC50     4570 nM
4  O=C1NCc2c1cccc2-n1ncc(C(=O)Nc2cnc(-n3nccn3)c(Cl)c2)c1C(F)(F)F [Cpd 133]               IC50      155 nM

[ask] Would you please give the reported IC50 of N#Cc1cc(NC(=O)c2cnn(-c3ccc(F)c(N4CC(O)C4)n3)c2C(F)(F)F)cnc1-n1nccn1 [Cpd 152] with full-length MALT1 protein (Strep-MALT1(1-824)-His) (Homo sapiens, UniProt Q9UDY8)?
[reply] 832 nM

[ask] Would you please give the reported IC50 of N#Cc1cc(NC(=O)c2cnn(-c3c(Cl)cc(F)cc3Cl)c2C(F)(F)F)cnc1-n1nccn1 [Cpd 102] with full-length MALT1 protein (Strep-MALT1(1-824)-His) (Homo sapiens, UniProt Q9UDY8)?
[reply] 151 nM

[ask] Would you please give the reported IC50 of N#Cc1cc(NC(=O)c2cnn(-c3cccc4c3OCO4)c2C(F)(F)F)cnc1-n1nccn1 [Cpd 59] with full-length MALT1 protein (Strep-MALT1(1-824)-His) (Homo sapiens, UniProt Q9UDY8)?
[reply] 41 nM

###

Test system: Secretion of IL6 by TMD8 ABC-DLBCL cells
Experiment: Human IL6 Mesoscale assay (TMD-8)
Type: cell-based
Conditions: TMD8 cells, 24 h incubation, supernatant, MSD V-Plex, read-out: Human IL6 Mesoscale assay (TMD-8)
List of IC50 values.
Provide the reading as a plain figure in nM.

>>> print(df.to_string())
                                   molecule  meas_value
0  Cc1ccccc1-n1ncc(C(=O)Nc2cnc(-n3nccn3)c(Cl)c2)c1C(F)(F)F [Cpd 29]         135
1  Cc1cc(Cl)ccc1-n1ncc(C(=O)Nc2cnc(-n3nccn3)c(Cl)c2)c1C(F)(F)F [Cpd 2]         148
2  N#Cc1cc(NC(=O)c2cnn(-c3cccc4c3CCN4)c2C(F)(F)F)cnc1-n1nccn1 [Cpd 130]         437
3  N#Cc1cc(NC(=O)c2cnn(-c3ccnc4c3OCO4)c2C(F)(F)F)cnc1-n1nccn1 [Cpd 53]          89
4  N#Cc1cc(NC(=O)c2cnn(-c3nccc(N)c3Cl)c2C(F)(F)F)cnc1-n1nccn1 [Cpd 120]        1100

[ask] Give the reported value of IC50 for this record: N#Cc1cc(NC(=O)c2cnn(-c3ccncc3Cl)c2C(F)(F)F)cnc1-n1nccn1 [Cpd 45]
[reply] 162

[ask] Give the reported value of IC50 for this record: Cc1cc(F)ccc1-n1ncc(C(=O)Nc2cnc(-n3nccn3)c(Cl)c2)c1C(F)(F)F [Cpd 1]
[reply] 79

[ask] Give the reported value of IC50 for this record: Cc1ccc(-n2ncc(C(=O)Nc3cnc(-n4nccn4)c(Cl)c3)c2C(F)(F)F)cc1 [Cpd 27]
[reply] 1200
